Entries and their measured residual activity follow.
- target system: ITK (human)
- test protocol: radiometric filter-binding kinase assay, Kinase HotSpot
- condition notes: compound 0.5 µM; ATP 10 µM
The reply should be a number in %, with the unit left off.

smiles input | measurement units | recorded value
Cc1nc2cc3nc(-c4cccs4)cnc3cc2n1C | % | 96.7
CCn1cnc2c(Nc3cccc(Cl)c3)nc(N[C@@H]3CCCC[C@@H]3N)nc21 | % | 105
O=C(CCCc1ccc(-c2ccccc2F)cc1)Nc1ccc(O)cc1 | % | 85
COc1ccc(CNC(=O)Nc2ncc([N+](=O)[O-])s2)cc1 | % | 89.5

Give ITK (human) residual activity for the following molecule: `Cn1cnc2cc3c(Nc4cccc(Br)c4)ncnc3cc21`
102

Give ITK (human) residual activity for the following molecule: `CC(C)[C@H](CO)Nc1nc(Nc2cc(N)cc(Cl)c2)c2ncn(C(C)C)c2n1`
80.2

Give ITK (human) residual activity for the following molecule: `O=C1NC(=O)C(c2cn(CCCO)c3ncccc23)=C1c1cnccn1`
84.7

Give ITK (human) residual activity for the following molecule: `COc1cc2ncnc(N3CCN(C(=O)Nc4ccc(Oc5ccccc5)cc4)CC3)c2cc1OC`
88.1

Give ITK (human) residual activity for the following molecule: `O=C(O)/C=C/c1cc(Br)c(Br)c(Br)c1Br`
100

Give ITK (human) residual activity for the following molecule: `CCN(CC)CCCCN1c2ccccc2Oc2ccc(Cl)cc21`
101

---

Entries and their measured residual activity follow.
- target system: ERBB4 (human) (UniProt Q15303)
- Sequence (Q15303 whole entry, looked up): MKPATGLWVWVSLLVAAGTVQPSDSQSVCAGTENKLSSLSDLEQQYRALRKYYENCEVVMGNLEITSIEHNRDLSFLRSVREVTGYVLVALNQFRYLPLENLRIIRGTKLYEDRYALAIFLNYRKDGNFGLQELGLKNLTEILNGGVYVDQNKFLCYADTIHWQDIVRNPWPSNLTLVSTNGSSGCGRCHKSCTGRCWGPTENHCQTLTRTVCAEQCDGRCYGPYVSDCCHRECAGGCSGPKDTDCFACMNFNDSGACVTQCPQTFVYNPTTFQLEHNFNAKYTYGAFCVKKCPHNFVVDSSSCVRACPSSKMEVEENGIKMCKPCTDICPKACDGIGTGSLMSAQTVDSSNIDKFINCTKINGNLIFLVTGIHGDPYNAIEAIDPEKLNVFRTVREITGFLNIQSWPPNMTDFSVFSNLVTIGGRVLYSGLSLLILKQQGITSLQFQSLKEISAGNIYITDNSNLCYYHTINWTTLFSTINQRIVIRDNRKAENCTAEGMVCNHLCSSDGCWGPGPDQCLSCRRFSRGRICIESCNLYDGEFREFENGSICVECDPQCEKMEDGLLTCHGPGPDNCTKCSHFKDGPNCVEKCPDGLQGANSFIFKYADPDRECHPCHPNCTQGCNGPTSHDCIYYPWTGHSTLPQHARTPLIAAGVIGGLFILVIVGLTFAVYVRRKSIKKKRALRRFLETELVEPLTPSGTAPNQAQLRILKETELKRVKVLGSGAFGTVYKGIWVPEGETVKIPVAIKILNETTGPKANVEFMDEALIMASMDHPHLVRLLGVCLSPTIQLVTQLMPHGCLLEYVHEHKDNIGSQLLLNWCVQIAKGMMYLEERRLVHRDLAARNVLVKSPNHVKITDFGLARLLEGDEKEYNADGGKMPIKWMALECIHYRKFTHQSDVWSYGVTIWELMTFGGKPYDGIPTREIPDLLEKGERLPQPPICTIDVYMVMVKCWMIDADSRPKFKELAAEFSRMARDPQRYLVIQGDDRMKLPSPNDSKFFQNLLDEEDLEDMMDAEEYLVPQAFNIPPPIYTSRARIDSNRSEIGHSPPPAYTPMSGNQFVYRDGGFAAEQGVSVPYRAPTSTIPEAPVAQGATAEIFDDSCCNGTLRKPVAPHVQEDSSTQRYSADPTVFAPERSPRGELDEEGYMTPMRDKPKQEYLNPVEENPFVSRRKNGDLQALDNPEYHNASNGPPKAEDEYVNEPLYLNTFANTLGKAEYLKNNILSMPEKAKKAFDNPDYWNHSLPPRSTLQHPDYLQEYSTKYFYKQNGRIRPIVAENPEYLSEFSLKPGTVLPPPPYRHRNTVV
- test protocol: radiometric filter-binding kinase assay, Kinase HotSpot
- condition notes: compound 0.5 µM; ATP 10 µM
The reply should be a number in %, with the unit left off.

// solved cases for residual activity follow
molecule | target system | measurement units | residual activity
COc1ccc(OC)c2c(=S)c3ccccc3[nH]c12 | ERBB4 (human) (UniProt Q15303) | % | 104
Nc1nccc(-c2c(-c3ccc(F)cc3)ncn2C2CCNCC2)n1 | ERBB4 (human) (UniProt Q15303) | % | 86.8
O=C1Cc2c([nH]c3ccc(Br)cc23)-c2ccccc2N1 | ERBB4 (human) (UniProt Q15303) | % | 101
Cn1cnc2cc3c(Nc4cccc(Br)c4)ncnc3cc21 | ERBB4 (human) (UniProt Q15303) | % | 75.5
CN([C@@H](Cc1ccc(OS(=O)(=O)c2cccc3cnccc23)cc1)C(=O)N1CCN(c2ccccc2)CC1)S(=O)(=O)c1cccc2cnccc12 | ERBB4 (human) (UniProt Q15303) | % | 103
O=C(CCCc1ccc(-c2ccccc2F)cc1)Nc1ccc(O)cc1 | ERBB4 (human) (UniProt Q15303) | % | 107

Write down residual activity measured for item `O=C1Nc2ccccc2/C1=C1\Nc2ccccc2\C1=N/O`
102

Write down residual activity measured for item `O=C1NC(=O)C(c2c[nH]c3ccccc23)=C1c1c[nH]c2ccccc12`
110

Write down residual activity measured for item `CC(C)c1nn(-c2c(Cl)cccc2Cl)c2nc(Cc3ccc(OCCO)cc3)nc(O)c12`
101

Write down residual activity measured for item `CCN(CC)CCCCN1c2ccccc2Oc2ccc(Cl)cc21`
102

Write down residual activity measured for item O=C1Nc2ccccc2/C1=C1/Nc2ccccc2/C1=N\OCCC(O)CO (stereo not given)
97.5

Write down residual activity measured for item `COc1ccc(CNC(=O)Nc2ncc([N+](=O)[O-])s2)cc1`
95.2
